These data points were gathered from ChEMBL document CHEMBL2203131.

- assay remarks: Prodrug conversion in sodium phosphate buffer using NADPH as cofactor assessed as Bacillus amyloliquefaciens CAMR 0454 ywrO-mediated reduction by steady state kinetics analysis
- Type: ADME
- reported conditions: read-out: Km(app)
readout name: Km (µM)
One number for each entry, in µM.

If you can, please state the reported Km value of NC(=O)c1cc(N2CC2)c([N+](=O)[O-])cc1[N+](=O)[O-] .
618

---

- assay remarks: Prodrug conversion in buffer using NADH as cofactor assessed as Escherichia coli AzoR-mediated reduction by steady state kinetics analysis
- Assay type: ADME
- reported conditions: read-out: Km(app)
readout name: Km

If you can, please state the reported Km value of NC(=O)c1cc(N2CC2)c([N+](=O)[O-])cc1[N+](=O)[O-] .
6.6 mM

---

For each of the molecules below, state its Km.
- assay remarks: Prodrug conversion in Tris-HCl buffer using NADPH as cofactor assessed as Escherichia coli NfsB-mediated reduction by steady state kinetics analysis
- Type: ADME
- reported conditions: read-out: Km(app)
Give bare numbers, in µM.

If you can, please state the reported Km value of NC(=O)c1cc(N2CC2)c([N+](=O)[O-])cc1[N+](=O)[O-] .
3600

Please find the next molecule below.
If you can, please state the reported Km value of NC(=O)N/N=C/c1ccc([N+](=O)[O-])o1 .
170

---

For each of the compounds below, state its Km.
- assay remarks: Prodrug conversion in Tris-HCl buffer using NADH as cofactor assessed as Escherichia coli NfsB-mediated reduction by steady state kinetics analysis
- Assay type: ADME
- reported conditions: read-out: Km(app)
Give bare numbers, in mM.

If you can, please state the reported Km value of NC(=O)c1cc(N2CC2)c([N+](=O)[O-])cc1[N+](=O)[O-] [TRETAZICAR] .
11

Please find the next compound below.
If you can, please state the reported Km value of NC(=O)N/N=C/c1ccc([N+](=O)[O-])o1 [NITROFURAZONE] .
0.16

---

- assay remarks: Prodrug conversion in buffer using NADPH as cofactor assessed as Escherichia coli NfsA-mediated reduction by steady state kinetics analysis
- Format: ADME
- reported conditions: read-out: Km(app)
readout name: Km (µM)
Numbers only, in µM.

If you can, please state the reported Km value of NC(=O)c1cc(N2CC2)c([N+](=O)[O-])cc1[N+](=O)[O-] [TRETAZICAR] .
220

---

- assay remarks: Prodrug conversion in Tris-HCl buffer assessed as Staphylococcus saprophyticus ATCC 15305 Ssap-NtrB-mediated reduction by steady state kinetics analysis
- Assay type: ADME
- reported conditions: read-out: Km(app)
For each of the molecules below, state its Km.
Numbers only, in µM.

If you can, please state the reported Km value of NC(=O)c1cc(N(CCCl)CCCl)c([N+](=O)[O-])cc1[N+](=O)[O-] .
82.4

If you can, please state the reported Km value of NC(=O)c1cc(N2CC2)c([N+](=O)[O-])cc1[N+](=O)[O-] .
1070

---
If you can, please state the reported Km value of NC(=O)N/N=C/c1ccc([N+](=O)[O-])o1 .
49.8
